As shown below, each of these molecules has a reported IC50 value.
Target: IP receptor (Homo sapiens, UniProt P43119)
Construct: one million cells in 160 μl aliquot of cell suspension were put in a well of 96 well plate
Sequence (P43119 whole entry): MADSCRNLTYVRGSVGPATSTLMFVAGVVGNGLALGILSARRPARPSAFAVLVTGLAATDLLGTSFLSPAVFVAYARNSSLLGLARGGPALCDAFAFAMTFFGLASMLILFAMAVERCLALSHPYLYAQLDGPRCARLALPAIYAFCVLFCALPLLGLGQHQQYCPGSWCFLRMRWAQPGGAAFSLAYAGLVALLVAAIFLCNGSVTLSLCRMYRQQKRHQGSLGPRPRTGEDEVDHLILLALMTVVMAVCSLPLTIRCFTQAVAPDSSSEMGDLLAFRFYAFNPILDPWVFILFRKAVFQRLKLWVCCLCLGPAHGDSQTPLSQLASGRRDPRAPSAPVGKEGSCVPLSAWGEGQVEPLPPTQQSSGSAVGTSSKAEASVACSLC
Experiment: IP receptor binding/cAMP in HEL cells ([3H]-iloprost binding, Assay 1; iloprost-induced cAMP production, Assay 2)
Conditions: compounds of about 40 to 90% purity, read-out: In vitro activity grade (IC50 class)
Endpoint: IC50

molecule=O=C(O)[C@@H](Cc1ccccn1)Nc1cc(-c2ccc(OCc3ccccc3)cc2)ncn1 experimental_target="IP receptor (Homo sapiens, UniProt P43119)" endpoint=IC50 test_result="< 100 nM"
molecule=O=C(O)[C@H](Cc1ccccc1)Nc1ccnc(-c2ccc(OCc3ccccc3)cc2)n1 experimental_target="IP receptor (Homo sapiens, UniProt P43119)" endpoint=IC50 test_result="100 to 1000 nM"
molecule="O=C(O)C(Cc1ccccc1)Nc1cc(-c2ccc(OCc3ccccc3F)cc2)ncn1 (centres unmarked)" experimental_target="IP receptor (Homo sapiens, UniProt P43119)" endpoint=IC50 test_result="< 100 nM"
molecule="O=C(O)C(Cc1ccccc1)Nc1cc(-c2ccc(OCc3ccccn3)cc2)ncn1 (centres unmarked)" experimental_target="IP receptor (Homo sapiens, UniProt P43119)" endpoint=IC50 test_result="< 100 nM"
molecule="O=C(O)C(Cc1ccc(O)cc1)Nc1cc(-c2ccc(OCc3ccccc3)cc2)ncn1 (centres unmarked)" experimental_target="IP receptor (Homo sapiens, UniProt P43119)" endpoint=IC50 test_result="< 100 nM"
molecule="COc1ccc(-c2cc(NC(Cc3ccccc3)C(=O)O)ncn2)cc1 (centres unmarked)" experimental_target="IP receptor (Homo sapiens, UniProt P43119)" endpoint=IC50 test_result="100 to 1000 nM"
molecule="O=C(O)C(Cc1ccccc1)Nc1cc(-c2ccc(OCCn3cccc3)cc2)ncn1 (centres unmarked)" experimental_target="IP receptor (Homo sapiens, UniProt P43119)" endpoint=IC50 test_result="< 100 nM"
molecule=O=C(O)[C@H](Cc1ccccc1)Nc1cc(-c2ccc(/C=N/Oc3ccccc3)cc2)ncn1 experimental_target="IP receptor (Homo sapiens, UniProt P43119)" endpoint=IC50 test_result="< 100 nM"

###

Endpoint: melting point

molecule=O=C(O)[C@H](Cc1ccccc1)Nc1ccnc(-c2ccc(OCc3ccccc3)cc2)c1 test_result="137 to 139 °C"
molecule="O=C(O)C(Cc1ccc([N+](=O)[O-])cc1)Nc1cc(-c2ccc(OCc3ccccc3)cc2)ncn1 (centres unmarked)" test_result="211 °C"
molecule=O=C(O)[C@@H](Cc1ccccc1)Nc1cc(-c2ccc(OCC3CC3)cc2)ncn1 test_result="180 to 183 °C (dec.)"
molecule=O=C(O)[C@H](Cc1ccccc1)Nc1ncnc(-c2ccc(OCc3ccccc3)cc2)c1CO test_result="114 to 117 °C"
molecule="CCCCC(Nc1cc(-c2ccc(OCc3ccccc3)cc2)ncn1)C(=O)O (centres unmarked)" test_result="187 °C"
molecule="Nc1ccc(CC(Nc2cc(-c3ccc(OCc4ccccc4)cc3)ncn2)C(=O)O)cc1 (centres unmarked)" test_result="145 °C"
molecule="O=C(O)C(Cc1ccccc1)Nc1cc(-c2ccc(OCCCc3ccccc3)cc2)ncn1 (centres unmarked)" test_result="101 to 104 °C"
molecule="O=C(O)C(Cc1ccccn1)Nc1cc(-c2ccc(OCc3ccccc3)cc2)ncn1 (centres unmarked)" test_result="218 to 223 °C"
